B1: LINE1-full (parent)
chain: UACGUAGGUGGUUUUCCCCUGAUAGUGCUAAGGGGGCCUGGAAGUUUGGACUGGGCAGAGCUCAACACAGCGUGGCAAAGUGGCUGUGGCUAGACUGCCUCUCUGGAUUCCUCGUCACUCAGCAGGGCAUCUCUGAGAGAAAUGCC

variants of: B1; assay: self-cleavage, relative activity (ratio to wild type); higher = more cleavage; in vitro, sequencing; the parent is a self-cleaving ribozyme
# label = yes (1) if self-cleavage >= 0.8 else no (0)

q: Could you tell me if the measured self-cleavage of U5C A78G reaches 0.8 or more?
a: yes (1)

q: State whether the measured self-cleavage reaches 0.8, counting equality as reaching it, for C19A A142U
a: yes (1)

q: Has A57G U96G a recorded self-cleavage greater than or equal to 0.8?
a: no (0)

q: Evaluate U20C C95U : self-cleavage at minimum 0.8?
a: no (0)

q: Does the variant G35A U85C have recorded self-cleavage that is 0.8 or more?
a: no (0)

Continuing:
q: Entry U119C A124U : is its self-cleavage no less than 0.8?
a: yes (1)

q: Kindly determine if self-cleavage recorded for A69G C118A is above or exactly 0.8.
a: no (0)

q: Evaluate U52G A79G : self-cleavage at minimum 0.8?
a: yes (1)

q: # bool: self-cleavage of U87G U119G >= 0.8
a: no (0)

q: Item U14C C90U with self-cleavage of 0.8 or above?
a: no (0)

q: Does self-cleavage meet or surpass 0.8 for A30G A117G ?
a: yes (1)

q: API: above_or_equal(metric=self-cleavage, cutoff=0.8) for item U9C A142U
a: yes (1)

q: Does self-cleavage meet or surpass 0.8 for G97A ?
a: no (0)

Hello, the source for this data is the RNAGym collection of RNA variant scans (doi:10.7554/elife.90254), in case you need it.
